test system: U87MC cells; test: Cytotoxicity analysis (MTT); assay type: cell-based; settings: Homo sapiens, U-87 MG, U87 cells, 48 hours
Result Type: pIC50
Numbers only, as −log10 of the molar value.

Query :: Value lookup for pIC50; key = "COc1cccc2c1C(=O)c1c(O)c3c(c(O)c1C2=O)C[C@@](O)(C(=O)CO)C[C@@H]3O[C@H]1C[C@H](N)[C@H](O)[C@H](C)O1"
Result :: 7.00
